Record form. Attribute: IC50. Fill in for each entry.
Test system: HCT 116 cell line
Experiment: Cell inhibition assay method A (WST-1, 120 hrs)
Format: cell-based
Conditions: Homo sapiens, HCT-116, method A, read-out: Inhibitor Activity vs HCT 116 cell line (method A)

Answered cases to consult:
1. CC[C@@H]1C(=O)N(C)c2cnc(Nc3ccc(C(=O)NC4CCN(CC[C@H](N)C(=O)OC(C)(C)C)CC4)cc3OC)nc2N1C1CCCC1    < 100 nM
2. CC[C@@H]1C(=O)N(C)c2cnc(Nc3ccc(C(=O)NC4CCN(CCC[C@@H](N)C(=O)OC5CCCC5)CC4)cc3OC)nc2N1C1CCCC1    < 100 nM
3. CC[C@@H]1C(=O)N(C)c2cnc(Nc3ccc(C(=O)Nc4ccc(C[C@H](N)C(=O)OC(C)(C)C)cc4)cc3OC)nc2N1C1CCCC1    100 to 500 nM

# return IC50 for each item in the list
1. CC[C@@H]1C(=O)N(C)c2cnc(Nc3ccc(C(=O)Nc4ccc(C[C@H](N)C(=O)OC5CCCC5)cc4)cc3OC)nc2N1C1CCCC1
2. CC[C@@H]1C(=O)N(C)c2cnc(Nc3ccc(C(=O)NC4CCN(CC[C@H](N)C(=O)OC5CCCC5)CC4)cc3F)nc2N1C1CCCC1

Reply:
1: < 100 nM; 2: < 100 nM

Looking up CC[C@@H]1C(=O)N(C)c2cnc(Nc3ccc(C(=O)NC4CCN(CCC[C@H](N)C(=O)OC5CCCC5)CC4)cc3OC)nc2N1C1CCCC1 , I see its IC50 listed as < 100 nM

---

Provide the reported IC50 of each item.
Tested on: HCT 116 cell line
Assay: Cell inhibition assay method A (WST-1, 120 hrs)
Format: cell-based
Settings: Homo sapiens, HCT-116, method A, read-out: Inhibitor Activity vs HCT 116 cell line (method A)

For each of the compounds below, note its IC50.
1. CC[C@@H]1C(=O)N(C)c2cnc(Nc3ccc(OCC[C@H](N)C(=O)OC4CCCC4)cc3OC)nc2N1C1CCCC1 [Example 4]
2. CC[C@@H]1C(=O)N(C)c2cnc(Nc3ccc(C[C@H](N)C(=O)OC4CCCC4)cc3)nc2N1C1CCCC1 [Example 1]
3. CC[C@@H]1C(=O)N(C)c2cnc(Nc3ccc(C(=O)NCCN4CCC(C[C@H](N)C(=O)OC5CCCC5)CC4)cc3OC)nc2N1C1CCCC1 [Example 10]
4. CC[C@@H]1C(=O)N(C)c2cnc(Nc3ccc(C(=O)N4CCNC(C(=O)OC5CCCC5)C4)cc3OC)nc2N1C1CCCC1 (some centres unmarked) [Example 13]

Reply:
< 100 nM
100 to 500 nM
< 100 nM
100 to 500 nM

I looked up CC[C@@H]1C(=O)N(C)c2cnc(Nc3ccc(C(=O)NC4C5CN(CC[C@H](N)C(=O)OC6CCCC6)CC54)cc3OC)nc2N1C1CCCC1 (some centres unmarked) [Example 18] and its IC50 for HCT 116 cell line was < 100 nM
